- Tested on: CASKI
- ASSAY_NAME: Primary qHTS to identify gynecologic anti-cancer compounds using libraries of approved drugs and bioactive compounds (AID 1345084); also: nearly all actives have a fitted effect of over 55% in size
- RUN_PARAMETERS: Gynecologic cancer cell panel viability, ATPlite luminescence, 48 h; series mostly up to 57.5 µM
Inconclusive results are not listed. Calls of active or inactive are those of the source. Calls follow the shape of the dose curve; as a rule, active = well fitted cell-killing curve with a large enough effect; inconclusive = small, poorly fitted or top-dose-only effect, or effect the other way; inactive = flat fitted curve, though single readings scatter.
// allowed return values: t = active, f = inactive

Reference set, count: 6
COc1ccc(Oc2cc(C)c(-c3csc(NC(=O)c4ccncc4)n3)c(C)c2)cc1	t
COc1ncc(Nc2ncc([C@H](C)N3CCN(S(C)(=O)=O)CC3)cc2-c2nc(C)nc(N)n2)cc1F	t
C[C@@H]1CCC/C=C/[C@H]2CC(=O)C[C@@H]2[C@@H](O)/C=C/C(=O)O1	f
O=C(OC1C=C(CO)C2C(OC3OC(CO)C(O)C(O)C3O)OC=CC12)c1ccc(O)cc1 (stereo not given)	f
CC(=O)O[C@@H]1C[C@@H](OC(C)=O)C(C)(C)/C=C/[C@H](C)[C@H](OC(C)=O)[C@@]2(O)C[C@H](C)[C@H](OC(=O)c3ccccc3)[C@@H]2/C=C/1C	f
CC1(C)CC[C@]2(C(=O)O[C@@H]3O[C@H](CO)[C@@H](O)[C@H](O)[C@H]3O)CC[C@]3(C)C(=CCC4[C@@]5(C)C[C@@H](O)[C@H](O)[C@@](C)(CO)C5CC[C@]43C)C2[C@@H]1O (stereo not given in full)	f

q: Record request — test call for C=C1C(O)CC2C(C(=O)O)=COC(O[C@@H]3O[C@H](COC(=O)/C=C/c4ccc(O)cc4)[C@@H](O)[C@H](O)[C@H]3O)C12 (stereo not given in full)
a: f

q: Tell me the assay call for "CC(C)=CCC/C(C)=C/CO[C@@H]1O[C@H](CO)[C@@H](OC(=O)/C=C/c2ccc(O)cc2)[C@H](O[C@@H]2O[C@@H](C)[C@H](O)[C@@H](O)[C@H]2O)[C@H]1O" please.
a: f

q: Name the outcome recorded for "O=c1[nH]ccc2cc(OC3CCNCC3)ccc12" in the assay.
a: f
